Tested on: TK-10 renal
protocol-notes: NCI tumour cell line growth inhibition, 48 h
Could you please report measured TGI for the items listed next?

Below, 2 compounds whose answers are already recorded.
> print(dat)
                                   compound  study.target  experimental.endpoint    result
1  Cc1ccc(S(=O)(=O)N(CCOc2ccc(/C(N)=N/Cl)cc2)CCOc2ccc(/C(N)=N\Cl)cc2)cc1   TK-10 renal                    TGI  > 100 µM
2  CC1=C(CCCNS(C)(=O)=O)C2=C(C)C3(CC3)[C@@](C)(O)C(=O)C2=C1   TK-10 renal                    TGI   8.52 µM

Hey, can you go through the list below and give me TGI for every item?
1. Cc1ccc(C(=O)Nc2ccc(CP(=O)(O)O)cc2CP(=O)(O)O)cc1NC(=O)c1cccc(N)c1
2. N#CC(C(=N/O)/C(=N/O)C(C#N)c1ccc(Cl)cc1)c1ccc(Cl)cc1 (centres undefined)
3. O=C1C=CC(=Nc2ccc3c(c2)C(Br)c2ccccc2-3)O1 (centres undefined)
4. Cc1cc(N(CCC#N)CCC#N)ccc1/C=N/NC(=O)c1cc(Cl)ccc1O
5. N#Cc1ccc(C#Cc2ccccc2C#CCCCCO)cc1
6. CC1=C(C(=O)Nc2ccc([N+](=O)[O-])cc2)C(c2ccc(N(C)C)cc2)C(C(=O)Nc2ccc([N+](=O)[O-])cc2)=C(C)N1

(A)
1: > 100 µM; 2: > 100 µM; 3: > 100 µM; 4: > 100 µM; 5: 33.5 µM; 6: 92.2 µM

(Q) Give the measured TGI of CSc1ccc(C2=NN(C(C)=O)C(c3cc(C)cs3)C2)cc1 (centres undefined) .
(A) > 100 µM
